The values you see were collected from patent US20200253929A1.

Record form. Attribute: IC50. Fill in for each entry.
# Test system: THLE2 cells
# assay.method.text: Cell viability MTT assay, THLE2 cells
# Format: cell-based, human
# reported.conditions: 24 h incubation, read-out: Cytotoxicity THLE2 cells IC50

Ask: Param readout= IC50; system= THLE2 cells; entry= `CC/C=C\[C@H](O)[C@H](O)C1=C(C)C(=O)[C@]2(O1)C(=O)N[C@](OC)(C(=O)c1ccccc1)[C@H]2O` ; returns value.
Reply: > 50 µM

Ask: Param readout= IC50; system= THLE2 cells; entry= CCc1ccc(C2=C(C)C(=O)C3(O2)C(=O)NC(OC)(C(=O)c2ccccc2)C3O)o1 (centres unmarked) ; returns value.
Reply: > 50 µM
